- study.system: P2X purinoceptor 7 (Homo sapiens)
- Sequence (Q99572 whole entry): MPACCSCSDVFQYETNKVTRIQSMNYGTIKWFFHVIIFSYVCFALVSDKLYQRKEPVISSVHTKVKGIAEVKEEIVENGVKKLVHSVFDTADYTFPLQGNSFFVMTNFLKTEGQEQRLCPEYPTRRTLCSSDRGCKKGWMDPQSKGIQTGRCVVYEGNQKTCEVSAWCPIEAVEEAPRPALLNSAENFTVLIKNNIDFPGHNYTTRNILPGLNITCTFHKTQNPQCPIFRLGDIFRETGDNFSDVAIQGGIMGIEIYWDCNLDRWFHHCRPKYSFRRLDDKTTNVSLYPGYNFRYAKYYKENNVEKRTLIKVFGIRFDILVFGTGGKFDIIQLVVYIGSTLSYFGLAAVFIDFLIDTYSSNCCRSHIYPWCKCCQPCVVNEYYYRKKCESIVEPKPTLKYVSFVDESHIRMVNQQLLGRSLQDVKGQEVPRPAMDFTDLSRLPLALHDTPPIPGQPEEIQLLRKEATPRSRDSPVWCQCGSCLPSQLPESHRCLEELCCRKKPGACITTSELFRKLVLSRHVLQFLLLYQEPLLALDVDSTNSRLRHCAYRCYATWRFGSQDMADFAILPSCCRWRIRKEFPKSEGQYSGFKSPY
- method: Antagonist activity at P2X7 receptor
pIC50: −log10 of the molar value.
The following molecules are shown together with reported pIC50 values.
property.label: pIC50

{"molecule": "CC(=O)N1CCN(C[C@@H](C)NC(=O)c2cc3c(-c4ccccc4)nn(C)c3s2)CC1", "property.label": "pIC50", "result": "< 5.00"}
{"molecule": "CCCc1nc(-c2ccccc2)oc1C(=O)NC(C)CN1CCN(c2ncccn2)CC1 (configuration not stated)", "property.label": "pIC50", "result": "< 5.00"}

* * *

- method: Metabolic stability in human liver microsomes
- Type: ADME, Microsome
- condition.parameters: read-out: Stability

{"chemical.smiles": "CC(=O)N1CCN(C[C@@H](C)NC(=O)c2cc3c(-c4ccccc4)nn(C)c3s2)CC1", "endpoint.unit": "µL/min/mg", "microsomal CLint": 1.7}

* * *

- method: Oral bioavailability in rat
- Format: ADME, organism-based
- condition.parameters: in vivo
property.label: bioavailability (%)

{"chemical.smiles": "CC(=O)N1CCN(C[C@@H](C)NC(=O)c2cc3c(-c4ccccc4)nn(C)c3s2)CC1", "readout.number": 89}

* * *

- study.system: UniProt P49654
- method: Antagonist activity at rat P2X3 receptor expressed in CHO cells
The following molecules are shown together with reported IC50 values.
property.label: IC50 (nM)

{"molecule": "CCCc1nc(-c2ccc(F)cc2)oc1CNC(C)CN1CCN(c2ncccn2)CC1 (centres undefined)", "study.system": "UniProt P49654", "property.label": "IC50", "modifier.sign": ">", "readout.number": 10000}
{"molecule": "CC(CN1CCN(c2ncccn2)CC1)NC(=O)c1cc2c(-c3ccccc3)nn(-c3ccccc3)c2s1 (centres undefined)", "study.system": "UniProt P49654", "property.label": "IC50", "modifier.sign": ">", "readout.number": 10000}
{"molecule": "CC(=O)N1CCN(CC(C)NC(=O)c2cc3c(-c4ccc(C)cc4)nn(C)c3s2)CC1 (centres undefined)", "study.system": "UniProt P49654", "property.label": "IC50", "modifier.sign": "=", "readout.number": 39.8}
{"molecule": "Cc1nc(-c2ccccc2)oc1C(=O)NC(C)CN1CCN(c2ncccn2)CC1 (centres undefined)", "study.system": "UniProt P49654", "property.label": "IC50", "modifier.sign": "=", "readout.number": 5010}
{"molecule": "Cc1c(C(=O)NC(C)CN2CCN(c3ncccn3)CC2)c(-c2ccccc2)nn1-c1ccccc1 (centres undefined)", "study.system": "UniProt P49654", "property.label": "IC50", "modifier.sign": ">", "readout.number": 10000}
{"molecule": "CCCc1nc(-c2ccc(F)cc2)oc1C(=O)NC(C)CN1CCCN(c2ncccn2)CC1 (centres undefined)", "study.system": "UniProt P49654", "property.label": "IC50", "modifier.sign": "=", "readout.number": 2510}
{"molecule": "CCCc1nc(-c2ccc(F)cc2)oc1C(=O)NCCN1CCN(c2ncccn2)CC1", "study.system": "UniProt P49654", "property.label": "IC50", "modifier.sign": ">", "readout.number": 10000}
{"molecule": "CC(=O)N1CCN(CC(C)NC(=O)c2cc3c(-c4ccccc4)nn(C)c3s2)CC1 (centres undefined)", "study.system": "UniProt P49654", "property.label": "IC50", "modifier.sign": "=", "readout.number": 100}
{"molecule": "CC(CN1CCN(c2ncccn2)CC1)NC(=O)c1cn(-c2ccccc2)nc1-c1ccccc1 (centres undefined)", "study.system": "UniProt P49654", "property.label": "IC50", "modifier.sign": "=", "readout.number": 1000}

* * *

- method: Half life in po dosed rat
- Type: ADME, organism-based
- condition.parameters: in vivo

{"chemical.smiles": "CC(=O)N1CCN(C[C@@H](C)NC(=O)c2cc3c(-c4ccccc4)nn(C)c3s2)CC1", "endpoint.unit": "h", "half-life": 1.6}

* * *

- study.system: P2X purinoceptor 3 (Rattus norvegicus)
- Sequence (P49654 whole entry): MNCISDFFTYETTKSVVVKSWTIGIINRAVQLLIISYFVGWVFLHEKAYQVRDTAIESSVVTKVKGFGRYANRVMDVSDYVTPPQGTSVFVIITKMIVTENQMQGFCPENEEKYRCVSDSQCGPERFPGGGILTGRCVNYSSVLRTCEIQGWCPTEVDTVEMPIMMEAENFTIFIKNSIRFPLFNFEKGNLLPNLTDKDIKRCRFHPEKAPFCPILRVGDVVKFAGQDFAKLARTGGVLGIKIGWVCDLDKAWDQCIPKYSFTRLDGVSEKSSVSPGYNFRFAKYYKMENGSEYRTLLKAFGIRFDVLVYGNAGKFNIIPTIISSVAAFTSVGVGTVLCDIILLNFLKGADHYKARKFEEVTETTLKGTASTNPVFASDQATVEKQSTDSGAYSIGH
- method: Antagonist activity at rat P2X3 receptor expressed in CHO cells
pIC50: −log10 of the molar value.
Label rule met when pIC50 is at or above 6; otherwise label rule not met.

{"molecule": "CCCc1nc(-c2ccc(F)cc2)oc1C(=O)N[C@H](C)CN1CCN(c2cnccn2)CC1", "cat": "rule met"}
{"molecule": "Cc1nn(-c2ccccc2)c2sc(C(=O)NC(C)CN3CCN(c4ncccn4)CC3)cc12 (configuration not stated)", "cat": "rule not met"}
{"molecule": "CCCc1nc(-c2ccc(F)cc2)oc1C(=O)N(C)CCN1CCN(c2ncccn2)CC1", "cat": "rule not met"}
{"molecule": "CC(CN1CCN(c2ncccn2)CC1)NC(=O)c1oc(-c2ccccc2)cc1-c1ccccc1 (configuration not stated)", "cat": "rule met"}
{"molecule": "Cc1ccccc1-c1nn(C)c2sc(C(=O)NC(C)CN3CCN(c4ncccn4)CC3)cc12 (configuration not stated)", "cat": "rule not met"}
{"molecule": "CC(=O)N1CCN(C[C@@H](C)NC(=O)c2cc3c(-c4ccccc4)nn(C)c3s2)CC1", "cat": "rule met"}
{"molecule": "CCCc1nc(-c2ccc(F)cc2)oc1C(=O)N[C@H](C)CN1CCN(C(=O)NC)CC1", "cat": "rule not met"}
{"molecule": "CC(CN1CCN(c2ncccn2)CC1)NC(=O)c1nc(-c2ccccc2)cc(-c2ccccc2)n1 (configuration not stated)", "cat": "rule not met"}
{"molecule": "CCn1nc(-c2ccccc2)c2cc(C(=O)NC(C)CN3CCN(c4ncccn4)CC3)sc21 (configuration not stated)", "cat": "rule met"}
{"molecule": "CCCc1nc(-c2ccc(F)cc2)oc1C(=O)NC(C)(C)CN1CCN(c2ncccn2)CC1", "cat": "rule not met"}
{"molecule": "CCCc1nc(-c2ccc(F)cc2)oc1C(=O)N[C@H](C)CN1CCN(c2ccccn2)CC1", "cat": "rule not met"}
{"molecule": "CCCc1nc(-c2ccc(F)cc2)oc1C(=O)NC(CC)CN1CCN(c2ncccn2)CC1 (configuration not stated)", "cat": "rule not met"}
{"molecule": "CCCc1nc(-c2ccc(F)cc2)oc1C(=O)N[C@H](C)CN1CCN(C(C)=O)CC1", "cat": "rule met"}
{"molecule": "CC(CN1CCN(c2ncccn2)CC1)NC(=O)c1cccc(-c2ccc(F)cc2)c1 (configuration not stated)", "cat": "rule met"}
{"molecule": "CCCc1nc(-c2ccc(F)cc2)oc1C(=O)N[C@H](C)CN1CCN(S(C)(=O)=O)CC1", "cat": "rule not met"}
{"molecule": "CCCc1nc(-c2ccc(F)cc2)oc1C(=O)N[C@@H](C)CN1CCN(c2ncccn2)CC1", "cat": "rule not met"}
{"molecule": "CC(=O)N1CCN(CC(C)NC(=O)c2cc3c(-c4ccccc4F)nn(C)c3s2)CC1 (configuration not stated)", "cat": "rule met"}
{"molecule": "CCCc1nc(-c2ccc(F)cc2)oc1C(=O)N[C@H](C)CN1CCN(C(=O)OCC)CC1", "cat": "rule not met"}
{"molecule": "CCCc1nc(-c2ccc(F)cc2)oc1C(=O)NC(C)CN1CCN(c2nccs2)CC1 (racemic)", "cat": "rule met"}
{"molecule": "CCCc1nc(-c2ccc(F)cc2)oc1C(=O)NC(C)CN1CCN(C(C)=S)CC1 (racemic)", "cat": "rule met"}
{"molecule": "CC(CN1CCN(c2ncccn2)CC1)NC(=O)c1cc2c(-c3ccccc3F)nn(C)c2s1 (configuration not stated)", "cat": "rule met"}
{"molecule": "CCCc1nc(-c2ccc(F)cc2)oc1C(=O)N[C@H](C)CN1CCN(C(=O)c2ccco2)CC1", "cat": "rule not met"}
{"molecule": "Cc1c(C(=O)NC(C)CN2CCN(c3ncccn3)CC2)cc(-c2ccccc2)n1-c1ccccc1 (configuration not stated)", "cat": "rule not met"}
{"molecule": "CC(CN1CCN(c2ncccn2)CC1)NC(=O)c1cc2c(-c3ccccc3)nn(C)c2o1 (configuration not stated)", "cat": "rule not met"}
{"molecule": "CCCc1cc(C(=O)NC(C)CN2CCN(c3ncccn3)CC2)cc(-c2ccc(F)cc2)c1 (configuration not stated)", "cat": "rule met"}
{"molecule": "CCCc1nc(-c2ccc(F)cc2)oc1C(=O)NC(C)CN1CCN(c2ccccn2)CC1 (racemic)", "cat": "rule not met"}
{"molecule": "CC(CN1CCN(c2ncccn2)CC1)NC(=O)c1cc(-c2ccc(F)cc2)cc(-c2ccc(F)cc2)c1 (configuration not stated)", "cat": "rule met"}
{"molecule": "CC(CN1CCN(c2ncccn2)CC1)N1Cc2c(c(-c3ccccc3)nn2-c2ccc(F)cc2)C1=O (configuration not stated)", "cat": "rule not met"}
{"molecule": "CCCc1nc(-c2ccc(F)cc2)oc1C(=O)N[C@H](C)CN1CCN(C(=O)C2CC2)CC1", "cat": "rule not met"}
{"molecule": "CC(CN1CCN(c2ncccn2)CC1)NC(=O)c1cc(Br)cc(-c2ccc(F)cc2)c1 (configuration not stated)", "cat": "rule met"}
{"molecule": "CC(CN1CCN(c2ncccn2)CC1)NC(=O)c1nc(-c2ccccc2)oc1-c1ccccc1 (configuration not stated)", "cat": "rule not met"}
{"molecule": "CC(CN1CCN(c2ncccn2)CC1)NC(=O)c1cc2c(-c3ccccc3)nn(C)c2s1 (configuration not stated)", "cat": "rule met"}

Reference source for all entries: ChEMBL document CHEMBL1159093
